tested on: UACC-257; assay: NCI tumour cell line growth inhibition, 48 h
Activity calls are given as the source filed them. Cut-off read from the data, not from the text of the source: active = GI50 up to about 1.1 µM and inactive = higher.
Field: GI50. Provide a value for each of the compounds that follow.

Sample answers from the record:
C#CCOC(=O)C(N)CCCNC(=N)N (stereo not given)	> 100 µM (inactive)
COC(=O)C(/C(=N\O)C(=O)Nc1ccc(Br)cc1)c1nc2ccccc2nc1O (stereo not given)	> 100 µM (inactive)
NCc1ccc(-c2ccc(-c3ccc(-c4ccc(CN)s4)s3)s2)s1	> 100 µM (inactive)
CN1CCC(O)C(CNC23CC4CC(CC(C4)C2)C3)C1 (stereo not given)	> 100 µM (inactive)
CC1(C)CC(=O)c2[nH]c3ccccc3c2CC(=O)NCCc2cn1cn2	> 100 µM (inactive)

# batch: return GI50 for each of the 5 compounds below
1. O=C1/C(=C/c2ccc(Cl)cc2)Sc2scc(-c3cccc([N+](=O)[O-])c3)[n+]21
2. CN1C(=O)C2(C)SC1(c1ccccc1)C1C(=O)N(c3ccccc3)C(=O)C12 (stereo not given)
3. COc1ccc(NC(=O)C(=O)Cc2ccc([N+](=O)[O-])c([N+](=O)[O-])c2CC(=O)C(=O)Nc2ccc(OC)cc2OC)c(OC)c1
4. CCn1cnnc1-c1nsc2ccccc12
5. CCOC(=O)/C1=C(\C)N(c2ccc(C)cc2)C(=O)c2ccccc2C(=O)c2c(O)ccc(O)c21

1. 4.61 µM (inactive)
2. 26.4 µM (inactive)
3. > 100 µM (inactive)
4. > 100 µM (inactive)
5. 15.8 µM (inactive)
